systemName: adrenergic α1A receptor (Homo sapiens, UniProt P35348)
Sequence (P35348 whole entry): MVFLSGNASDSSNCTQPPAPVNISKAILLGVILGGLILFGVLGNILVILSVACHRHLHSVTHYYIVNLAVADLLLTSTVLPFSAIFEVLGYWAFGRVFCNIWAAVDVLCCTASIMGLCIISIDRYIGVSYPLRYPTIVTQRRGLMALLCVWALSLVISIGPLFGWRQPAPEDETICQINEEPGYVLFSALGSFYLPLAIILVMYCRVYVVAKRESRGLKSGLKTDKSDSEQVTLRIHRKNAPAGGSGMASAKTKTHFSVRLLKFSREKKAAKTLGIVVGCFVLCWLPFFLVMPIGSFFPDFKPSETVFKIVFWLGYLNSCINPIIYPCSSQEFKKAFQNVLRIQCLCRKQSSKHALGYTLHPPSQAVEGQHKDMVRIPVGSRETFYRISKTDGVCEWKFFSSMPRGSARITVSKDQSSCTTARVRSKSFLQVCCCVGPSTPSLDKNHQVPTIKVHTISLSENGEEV
experimentDescription: Cellular functional assay, adrenergic α1A receptor (agonism/antagonism)
Format: cell-based
conditionSummary: agonist effect, percent of control specific agonist response; compounds tested at 1×10^−6M; read-out: α1A -ag [%]
Entries annotated with measured activation at 1 µM
Give the value in % but do not write % after it.

# molecule, systemName, displayUnit, activation at 1 µM
records = [
    ("O=S(=O)(NCCCN1CCC(c2noc3cc(F)ccc23)CC1)c1ccc2cn[nH]c2c1 [Compound 352]", "adrenergic α1A receptor (Homo sapiens, UniProt P35348)", "%", 1),
    ("O=c1[nH]c2ccc(S(=O)(=O)NCCCN3CCN(c4nsc5ccccc45)CC3)cc2o1 [Compound 8]", "adrenergic α1A receptor (Homo sapiens, UniProt P35348)", "%", 0),
    ("Cc1c(S(=O)(=O)NCCCN2CCC(c3noc4cc(F)ccc34)CC2)sc2ccc(F)cc12 [Compound 102]", "adrenergic α1A receptor (Homo sapiens, UniProt P35348)", "%", 0),
    ("O=S(=O)(NCCCCN1CCN(c2cccc3[nH]ccc23)CC1)c1cc2ccccc2s1 [Compound 33]", "adrenergic α1A receptor (Homo sapiens, UniProt P35348)", "%", 0),
    ("O=S(=O)(NCCCCN1CCC(c2noc3cc(F)ccc23)CC1)c1cc2ccccc2s1 [Compound 312]", "adrenergic α1A receptor (Homo sapiens, UniProt P35348)", "%", 0),
    ("O=c1[nH]c2cccc(N3CCN(CCCNS(=O)(=O)c4ccc5ccccc5c4)CC3)c2[nH]1 [Compound 424]", "adrenergic α1A receptor (Homo sapiens, UniProt P35348)", "%", 39),
    ("O=S(=O)(NCCCCN1CCN(c2noc3ccccc23)CC1)c1ccc(-c2ccccc2)cc1 [Compound 283]", "adrenergic α1A receptor (Homo sapiens, UniProt P35348)", "%", 0),
    ("O=S(=O)(NCCCCN1CCN(c2cccc3[nH]ccc23)CC1)c1ccc2ccccc2c1 [Compound 26]", "adrenergic α1A receptor (Homo sapiens, UniProt P35348)", "%", 0),
]

// returns reported activation at 1 µM for input O=c1[nH]c2cccc(N3CCN(CCCNS(=O)(=O)c4cccc5ccccc45)CC3)c2[nH]1 [Compound 423]
16

// returns reported activation at 1 µM for input O=S(=O)(NCCCCN1CCN(c2cccc3[nH]ccc23)CC1)c1cc2ccc(Cl)cc2s1 [Compound 363]
0

// provenance: patent US8822517B2
